Data credit: patent US20180186897A1

Measured % parasite recognition, listed per entry.
Molecular target: erythrocytes infected with P. falciparum field isolate 10936
Experiment: flow cytometry, staining of IEs

# binder, % parasite recognition [%]
records = [
    ("MGD41 (antibody) VH: EVQLVESGPGLVKPSGTLSVTCTISGGSINTDKWWTWVRQPPGKGLEWVGEVLHTGSTNYNPSLRGRVTISVDKSKNQFSLRLSSVTAADTAVYYCATISTLRPQRDIEDLPRPSLSAEPGTVVPLGSHVTFVCRGPVGVQTFRLERESRSTYNDTEDVSQPSPFESEARFRIDSVSEGNAGPYRCIYYKSPKWSDQSDYVELLVKGEDVTWAPPQSQLAPRACPQGELRTSTDIFSMNVWGKGTTVTVSS VL: AIRMTQSPSSLSAFTGDRVTISCRASQDIGNYLDWYHQKPGRAPKLLIHGASTLLTGVPSRFSGSGSGTDFTLNITCLQSGDFGIYYCLQYYSSPPAFGPGTRLEIK", 6.1),
    ("MGD39 (antibody) VH: QVRLQESGPGLVKPSGTLSLTCTVSGGSISAYRWWSWVRQAPGKGLEWIGQVYNDGNTNYNPSLKGRVAMSVDKSKNRFSLRLASVTAADTAVYYCATISPLRPQSDTDDLPRPSISAEPGTVIPLGSHVTFVCRGPIGVQTFRLERERRSLYSDTEDVSQVSPFASEARFRIDSVSEGNAGPYRCIYYKDRKWSDQSDYLELLVKGEDVTWALPQSQLAPRACPQEELNISTDIFSMNVWGKGTTVTVSS VL: AIRMTQSPASLSASIGDRVTITCRTSHDVGNYLDWYQQKPGKAPKLLIHGASTLQTGVPSRFSGSGAGTDFTLNITCLQSGDFAMYYCQQYYSSPPGFGQGTRLEIK", 10.5),
]
